- measured.on: EZH2 (Homo sapiens (Human), UniProt Q15910)
- Sequence (Q15910 whole entry): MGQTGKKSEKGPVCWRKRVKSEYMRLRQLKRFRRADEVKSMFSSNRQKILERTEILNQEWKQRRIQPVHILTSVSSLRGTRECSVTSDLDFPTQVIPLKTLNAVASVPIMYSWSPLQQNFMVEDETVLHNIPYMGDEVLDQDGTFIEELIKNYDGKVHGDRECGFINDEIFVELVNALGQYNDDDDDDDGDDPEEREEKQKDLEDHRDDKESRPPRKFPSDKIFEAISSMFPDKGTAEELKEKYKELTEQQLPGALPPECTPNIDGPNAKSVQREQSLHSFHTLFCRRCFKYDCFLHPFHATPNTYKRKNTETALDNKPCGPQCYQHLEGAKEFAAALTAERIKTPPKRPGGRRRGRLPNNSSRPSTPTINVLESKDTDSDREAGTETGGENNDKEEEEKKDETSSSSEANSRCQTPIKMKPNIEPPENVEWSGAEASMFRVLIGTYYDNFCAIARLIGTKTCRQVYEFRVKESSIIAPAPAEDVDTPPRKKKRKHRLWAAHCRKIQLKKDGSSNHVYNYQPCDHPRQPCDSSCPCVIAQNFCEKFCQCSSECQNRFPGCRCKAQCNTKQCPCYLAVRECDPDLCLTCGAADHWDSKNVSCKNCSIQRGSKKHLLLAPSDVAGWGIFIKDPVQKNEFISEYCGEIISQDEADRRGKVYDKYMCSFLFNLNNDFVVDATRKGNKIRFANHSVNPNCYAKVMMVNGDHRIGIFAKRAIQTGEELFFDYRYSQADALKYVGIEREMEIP
- Sequence (Q15022 whole entry partner): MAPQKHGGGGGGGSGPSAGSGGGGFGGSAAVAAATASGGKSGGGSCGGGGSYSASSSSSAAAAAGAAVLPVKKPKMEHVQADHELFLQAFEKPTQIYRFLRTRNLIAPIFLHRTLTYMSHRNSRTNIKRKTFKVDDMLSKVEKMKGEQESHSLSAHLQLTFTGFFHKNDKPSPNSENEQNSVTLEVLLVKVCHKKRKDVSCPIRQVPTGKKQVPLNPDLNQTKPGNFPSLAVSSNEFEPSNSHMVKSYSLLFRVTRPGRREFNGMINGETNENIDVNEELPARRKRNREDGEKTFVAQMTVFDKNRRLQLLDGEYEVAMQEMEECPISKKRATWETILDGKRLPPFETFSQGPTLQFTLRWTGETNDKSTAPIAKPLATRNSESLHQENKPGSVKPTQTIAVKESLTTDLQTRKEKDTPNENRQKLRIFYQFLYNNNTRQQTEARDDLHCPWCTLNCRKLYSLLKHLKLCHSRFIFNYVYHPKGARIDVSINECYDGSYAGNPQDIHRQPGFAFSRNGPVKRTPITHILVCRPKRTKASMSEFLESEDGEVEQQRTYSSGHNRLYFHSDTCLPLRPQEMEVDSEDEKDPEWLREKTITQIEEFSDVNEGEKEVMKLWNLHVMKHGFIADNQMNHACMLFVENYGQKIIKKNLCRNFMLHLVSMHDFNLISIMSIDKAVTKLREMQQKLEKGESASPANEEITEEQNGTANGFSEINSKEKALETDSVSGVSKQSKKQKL
- Sequence (O75530 whole entry partner): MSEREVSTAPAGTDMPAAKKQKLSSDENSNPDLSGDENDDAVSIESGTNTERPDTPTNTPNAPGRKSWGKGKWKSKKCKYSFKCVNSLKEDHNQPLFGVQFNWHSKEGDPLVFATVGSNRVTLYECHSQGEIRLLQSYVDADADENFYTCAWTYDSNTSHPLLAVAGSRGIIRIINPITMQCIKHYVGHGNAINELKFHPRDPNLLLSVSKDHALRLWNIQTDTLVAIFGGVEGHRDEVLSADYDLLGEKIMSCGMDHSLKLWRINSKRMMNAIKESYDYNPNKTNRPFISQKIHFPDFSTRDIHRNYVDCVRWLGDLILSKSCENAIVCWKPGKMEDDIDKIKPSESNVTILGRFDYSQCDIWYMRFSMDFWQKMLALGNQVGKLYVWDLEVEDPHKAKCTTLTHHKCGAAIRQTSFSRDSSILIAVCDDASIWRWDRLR
- Sequence (Q09028 whole entry partner): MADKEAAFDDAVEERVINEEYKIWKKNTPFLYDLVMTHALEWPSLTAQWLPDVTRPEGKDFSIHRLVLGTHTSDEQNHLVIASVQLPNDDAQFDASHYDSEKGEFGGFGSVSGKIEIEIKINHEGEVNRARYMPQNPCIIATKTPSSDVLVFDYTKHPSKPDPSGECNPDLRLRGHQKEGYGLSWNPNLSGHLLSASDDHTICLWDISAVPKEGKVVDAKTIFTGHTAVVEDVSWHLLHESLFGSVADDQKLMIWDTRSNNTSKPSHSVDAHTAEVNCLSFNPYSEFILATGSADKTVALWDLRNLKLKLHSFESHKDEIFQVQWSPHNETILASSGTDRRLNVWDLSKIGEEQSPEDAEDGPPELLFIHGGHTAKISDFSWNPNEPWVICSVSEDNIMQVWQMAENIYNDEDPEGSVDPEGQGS
- procedure.text: ELISA (H3K27 methylation) assay in G401 cell
- Assay type: cell-based
- measurement.parameters: (b) ELISA Qualified assay, 48 h
parameter.measured: IC50 (µM)

Some solved entries appear below for comparison.
- compound: "OC1CN(Cc2cnc(NC[C@H]3CC[C@H](Nc4ccc5ccnc(Cl)c5n4)CC3)nc2)C1"
  result: 0.022
- compound: "COc1nccc2ccc(N[C@H]3CC[C@H](CNc4ncc(N)cn4)CC3)nc12"
  result: 0.042

A = O=C(Nc1cnc(NC[C@H]2CC[C@H](Nc3ccc4ccnc(Cl)c4n3)CC2)nc1)OCC1COC1
B = Clc1nccc2ccc(N[C@H]3CC[C@H](CNc4ncc(CNC5COC5)cn4)CC3)nc12
Query: Hi there! Just curious which has the higher IC50 between A and B . The response must carry the label of the picked entry.
Reply: A

----------
- measured.on: EZH2 (Homo sapiens (Human), UniProt Q15910)
- procedure.text: ELISA (H3K27 methylation) assay in G401 cell
- Format: cell-based
- measurement.parameters: (b) ELISA Qualified assay, 48 h
parameter.measured: IC50 (µM)

Some solved entries appear below for comparison.
- compound: "O=C(NC1COC1)c1cnc(NC[C@H]2CC[C@H](Nc3ccc4ccnc(Cl)c4n3)CC2)nc1"
  IC50 [µM]: 0.285
- compound: "COc1nccc2ccc(N[C@H]3CC[C@H](CNc4ncc(C(N)=O)cn4)CC3)nc12"
  IC50 [µM]: 0.062
- compound: "CC(CO)Oc1cnc(NC[C@H]2CC[C@H](Nc3ccc4ccnc(Cl)c4n3)CC2)nc1 (stereo partly shown)"
  IC50 [µM]: 0.018
- compound: "O=C(Cc1cnc(NC[C@H]2CC[C@H](Nc3ccc4ccnc(Cl)c4n3)CC2)nc1)N(CCO)C1COC1"
  IC50 [µM]: 0.018
- compound: "COc1nccc2ccc(N[C@H]3CC[C@H](CNc4ncc(NC(=O)C5CN(C)C5)cn4)CC3)nc12"
  IC50 [µM]: 0.025
- compound: "O=C(c1cnc(NC[C@H]2CC[C@H](Nc3ccc4ccnc(Cl)c4n3)CC2)nc1)N1CCOCC1"
  IC50 [µM]: 0.188

A = COc1nccc2ccc(N[C@H]3CC[C@H](CNc4ncc(C(=O)N5CCOCC5)cn4)CC3)nc12
B = O=C(Cc1cnc(NC[C@H]2CC[C@H](Nc3ccc4ccnc(Cl)c4n3)CC2)nc1)N1CC(O)C1
Query: Consider entries A and B . Which has the numerically lower IC50? The response must carry the label of the picked entry.
Reply: B

I = CC1(NCc2cnc(NC[C@H]3CC[C@H](Nc4ccc5ccnc(Cl)c5n4)CC3)nc2)COC1
II = COc1nccc2ccc(N[C@H]3CC[C@H](CNc4ncc(NC(C)=O)cn4)CC3)nc12
Query: Hi there! Just curious which has the higher IC50 between I and II . The response must carry the label of the picked entry.
Reply: II
(II: 0.066 µM, I: 0.005 µM)

----------
- measured.on: EZH2 (Homo sapiens (Human))
- procedure.text: ELISA (H3K27 methylation) assay in G401 cell
- Format: cell-based
- measurement.parameters: (b) ELISA Qualified assay, 48 h
parameter.measured: IC50 (µM)

Some solved entries appear below for comparison.
- molecule: "O=C(NC1COC1)C(F)(F)c1cnc(NC[C@H]2CC[C@H](Nc3ccc4ccnc(Cl)c4n3)CC2)nc1"
  IC50, µM: 0.025
- molecule: "CC1(NCCc2cnc(NC[C@H]3CC[C@H](Nc4ccc5ccnc(Cl)c5n4)CC3)nc2)COC1"
  IC50, µM: 0.032

a = COc1nccc2ccc(N[C@H]3CC[C@H](CNc4ncc(NC(=O)CO)cn4)CC3)nc12
b = O=C(Nc1cnc(NC[C@H]2CC[C@H](Nc3ccc4ccnc(Cl)c4n3)CC2)nc1)OCCO
Query: Consider entries a and b . Which has the numerically lower IC50? The response must carry the label of the picked entry.
Reply: b
(b: 0.01 µM, a: 0.131 µM)

I = COC(=O)N(C)c1cnc(NC[C@H]2CC[C@H](Nc3ccc4ccnc(Cl)c4n3)CC2)nc1
II = OC1CC(NCc2cnc(NC[C@H]3CC[C@H](Nc4ccc5ccnc(Cl)c5n4)CC3)nc2)C1 (stereo partly drawn)
III = O=S1(=O)CCN(Cc2cnc(NC[C@H]3CC[C@H](Nc4ccc5ccnc(Cl)c5n4)CC3)nc2)CC1
Query: Returns the items ordered by IC50, from maximum to minimum. In your reply, arrange the labels in the requested order.
Reply: I, II, III

I = COc1nccc2ccc(N[C@H]3CC[C@H](CNc4ncc(-c5ncn[nH]5)cn4)CC3)nc12
II = CN(C(=O)Cc1cnc(NC[C@H]2CC[C@H](Nc3ccc4ccnc(Cl)c4n3)CC2)nc1)C1COC1
Query: Hi there! Just curious which has the higher IC50 between I and II . The response must carry the label of the picked entry.
Reply: I

a = Clc1nccc2ccc(N[C@H]3CC[C@H](CNc4ncc(-c5nnc[nH]5)cn4)CC3)nc12
b = N#CCCN(C(=O)Cc1cnc(NC[C@H]2CC[C@H](Nc3ccc4ccnc(Cl)c4n3)CC2)nc1)C1COC1
c = O=C(Cc1ccc(NC[C@H]2CC[C@H](Nc3ccc4ccnc(Cl)c4n3)CC2)nc1)NC1COC1
d = O=C(NCc1cnc(NC[C@H]2CC[C@H](Nc3ccc4ccnc(Cl)c4n3)CC2)nc1)C1CCN1 (stereo partly drawn)
Query: Returns the items ordered by IC50, from maximum to minimum. In your reply, arrange the labels in the requested order.
Reply: d, a, c, b

The reported numbers originate from patent US12544374B2.
